System name: T1, recombinant human PSMA (R&D, cat. no. 4234-ZN) (human, UniProt Q04609 44-750)
T1 construct: Bought protein; also called rhPSMA; Recombinant PMSA
T1 sequence (Q04609 44-750 limits assumed): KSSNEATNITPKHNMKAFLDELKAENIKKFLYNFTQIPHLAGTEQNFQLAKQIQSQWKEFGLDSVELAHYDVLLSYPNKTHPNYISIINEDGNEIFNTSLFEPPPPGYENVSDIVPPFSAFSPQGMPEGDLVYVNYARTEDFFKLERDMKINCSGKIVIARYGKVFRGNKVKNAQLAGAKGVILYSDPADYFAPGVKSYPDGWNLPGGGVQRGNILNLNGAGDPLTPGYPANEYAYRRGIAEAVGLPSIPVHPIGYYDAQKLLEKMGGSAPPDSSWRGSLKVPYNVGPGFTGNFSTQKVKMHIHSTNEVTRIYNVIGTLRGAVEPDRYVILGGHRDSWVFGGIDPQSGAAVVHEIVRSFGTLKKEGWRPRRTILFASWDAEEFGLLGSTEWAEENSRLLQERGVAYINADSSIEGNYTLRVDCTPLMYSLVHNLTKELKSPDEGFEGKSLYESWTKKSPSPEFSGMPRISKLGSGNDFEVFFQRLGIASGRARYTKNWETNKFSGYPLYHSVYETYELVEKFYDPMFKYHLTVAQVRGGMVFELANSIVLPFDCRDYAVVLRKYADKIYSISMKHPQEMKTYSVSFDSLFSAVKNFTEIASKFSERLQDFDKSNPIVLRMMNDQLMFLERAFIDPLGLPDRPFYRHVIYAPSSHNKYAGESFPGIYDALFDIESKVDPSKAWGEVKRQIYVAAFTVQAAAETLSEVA
Assay summary: Octet RED384 BLI, PSMA on sensor, VH series from 0.375 ug/ml
Reported koff values follow for various binders
Answer with the value and then the unit.

Solved entries (count: 4):
Binder	koff
single VH domain antibody 2.1 (VHH, Human single VH domain antibody (Humabody); tested with a C-terminal His tag; 71-95; also called VH 2.1; VH2.1) VHH: EVQLVESGGGVVQPGRSLRLSCAASGFSFSGYGMHWVRQAPGKGLEWVAYISYDGSNKYYADSVKGRFTISRDNSKNTLYLQMNSLRAEDTAVYYCAKDPAWGLRLGESSSYDFDIWGQGTMVTVSS	0.000228 s⁻¹
single VH domain antibody 2.22 (VHH, Human single VH domain antibody (Humabody); C-terminal His tag, residues not tied) VHH: EVQLVESGGGVVQPGRSLRLSCAASGFSFSGYGTHWVRQAPGKGLEWVAYISYDGSNKYYAAPVKGRFTISRDNSKNTLYLQMNSLRAEDTAVYYCAKDAAWGLRLGESSSYDFDIWGQGTMVTVSS	0.00244 s⁻¹
single VH domain antibody 2.12 (VHH, Human single VH domain antibody (Humabody); C-terminal His tag, residues not tied) VHH: EVQLVESGGGVVQPGRSLRLSCAASGFSFSGYGMHWVRQAPGKGLEWVAYISYDKSNKYYADKVKGRFTISRDNSKNTLYLQMNSLRAEDTAVYYCAKDPAWGLRLGESSSYDFDIWGQGTMVTVSS	0.00157 s⁻¹
single VH domain antibody 2.17 (VHH, Human single VH domain antibody (Humabody); C-terminal His tag, residues not tied) VHH: EVQLVESGGGVVQPGRSLRLSCAASGFSFSGYGMHWVRQAPGKGLEWVAYISYDASNKYYADNVKGRFTISRDNSKNTLYLQMNSLRAEDTAVYYCAKDPAWGLRLGESSSYDFDIWGQGTMVTVSS	0.000726 s⁻¹

IN: What value of koff has been reported for the following binder? single VH domain antibody 2.13 (VHH, Human single VH domain antibody (Humabody); C-terminal His tag, residues not tied) VHH: EVQLVESGGGVVQPGRSLRLSCAASGFSFSGYGLHWVRQAPGKGLEWVAYISYDASNKYYADNVKGRFTISRDNSKNTLYLQMNSLRAEDTAVYYCAKDPAWGLRLGESSSYDFDIWGQGTMVTVSS
OUT: 0.000743 s⁻¹
